Please provide measured vapor or sublimation pressure for the entries that follow.
Conditions: 440 K; Liquid; Gas chromatography
± gives the expanded uncertainty stated by the source.

Tell me its vapor or sublimation pressure given CC/C=C/CCCCCCCCCCOC(C)=O [(E)-tetradec-11-enyl acetate] as the entry.
1.2 ± 0.35 kPa

Tell me its vapor or sublimation pressure given CCC/C=C\CCCCCCCOC(C)=O [(Z)-dodec-8-enyl acetate] as the entry.
3.5 ± 0.45 kPa

Tell me its vapor or sublimation pressure given CC/C=C/C=C/CCCCCCCCOC(C)=O [(9E,11E)-tetradeca-9,11-dienyl acetate] as the entry.
0.87 ± 0.27 kPa

Tell me its vapor or sublimation pressure given C#CCOC(=O)/C=C(C)/C=C/CC(C)CCCC(C)C (centres undefined) [prop-2-ynyl (2E,4E)-3,7,11-trimethyldodeca-2,4-dienoate] as the entry.
0.49 ± 0.16 kPa

---

Conditions: 360 K; Liquid; Gas chromatography
Please provide measured vapor or sublimation pressure for the entries that follow.
Write it as a number; the unit kPa goes unstated.

Tell me its vapor or sublimation pressure given CCC/C=C\CCCCCCCOC(C)=O [(Z)-dodec-8-enyl acetate] as the entry.
0.053

Tell me its vapor or sublimation pressure given CC/C=C/C=C/CCCCCCCCOC(C)=O [(9E,11E)-tetradeca-9,11-dienyl acetate] as the entry.
0.007

Tell me its vapor or sublimation pressure given CCCC/C=C\CCCCCCCCCCCCOC(C)=O [(Z)-octadec-13-en-1-yl acetate] as the entry.
0.00061

Tell me its vapor or sublimation pressure given C#CCOC(=O)/C=C(C)/C=C/CC(C)CCCC(C)C (centres undefined) [prop-2-ynyl (2E,4E)-3,7,11-trimethyldodeca-2,4-dienoate] as the entry.
0.0029
